# IC50 annotations
# Target or test system: HsNMT Isoform 1 (Homo sapiens, UniProt P30419)
# Sequence (P30419 whole entry, canonical isoform): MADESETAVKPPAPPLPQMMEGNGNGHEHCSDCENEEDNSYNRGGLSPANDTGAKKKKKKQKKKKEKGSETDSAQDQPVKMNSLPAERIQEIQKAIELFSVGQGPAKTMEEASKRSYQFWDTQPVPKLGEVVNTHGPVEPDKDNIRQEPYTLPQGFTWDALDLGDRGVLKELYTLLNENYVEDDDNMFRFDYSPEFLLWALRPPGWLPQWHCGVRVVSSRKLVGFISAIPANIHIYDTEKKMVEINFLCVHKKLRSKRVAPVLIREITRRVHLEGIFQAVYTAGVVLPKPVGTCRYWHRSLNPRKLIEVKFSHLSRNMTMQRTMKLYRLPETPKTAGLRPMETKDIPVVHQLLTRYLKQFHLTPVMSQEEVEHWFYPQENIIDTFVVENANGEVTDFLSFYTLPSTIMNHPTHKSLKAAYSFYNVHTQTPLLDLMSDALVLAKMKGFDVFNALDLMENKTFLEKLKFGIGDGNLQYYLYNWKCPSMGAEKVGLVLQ
# Protocol summary: NMT activity assay (CPM fluorescence detection of free CoA), HsNMT
Value type: IC50 (nM)

[
  {
    "Compound": "COC(=O)CNC(=O)c1nn(C)c(C)c1CCOc1ccccc1-c1ccnc(N2CCNCC2)c1 [Compound 8i]",
    "Result units": "nM",
    "Measured result": 57
  },
  {
    "Compound": "Cc1c(CCOc2ccccc2-c2ccnc(N3CCNCC3)c2)c(C(=O)NCCN)nn1C [Compound 8f]",
    "Result units": "nM",
    "Measured result": 103
  },
  {
    "Compound": "Cc1c(CCOc2ccccc2-c2ccnc(N3CCNCC3)c2)c(C(=O)N2CCOCC2)nn1C [Compound 8b]",
    "Result units": "nM",
    "Measured result": 763
  },
  {
    "Compound": "Cc1c(CCOc2ccc3ccccc3c2-c2ccnc(N3CCNCC3)c2)c(C(=O)N2CCOCC2)nn1C [Compound 10b]",
    "Result units": "nM",
    "Measured result": 11400
  },
  {
    "Compound": "Cc1c(CCOc2ccccc2-c2ccnc(N3CCNCC3)c2)c(C(=O)NCC(=O)O)nn1C [Compound 8c]",
    "Result units": "nM",
    "Measured result": 116
  },
  {
    "Compound": "Cc1c(CCOc2cccnc2-c2ccnc(N3CCNCC3)c2)c(C(=O)NCC(N)=O)nn1C [Compound 9d]",
    "Result units": "nM",
    "Measured result": 11000
  },
  {
    "Compound": "Cc1c(CCOc2cccnc2-c2ccnc(N3CCNCC3)c2)c(C(=O)N2CCOCC2)nn1C [Compound 9b]",
    "Result units": "nM",
    "Measured result": 1650
  },
  {
    "Compound": "Cc1c(CCOc2ccccc2-c2ccnc(N3CCNCC3)c2)c(C(=O)Nc2cccnc2)nn1C [Compound 8a]",
    "Result units": "nM",
    "Measured result": 2520
  }
]
